Biological target: T1, recombinant soluble human IL-6R (human, UniProt P08887 20-365)
T1 construct: also called sIL-6R; shIL-6R
T1 sequence: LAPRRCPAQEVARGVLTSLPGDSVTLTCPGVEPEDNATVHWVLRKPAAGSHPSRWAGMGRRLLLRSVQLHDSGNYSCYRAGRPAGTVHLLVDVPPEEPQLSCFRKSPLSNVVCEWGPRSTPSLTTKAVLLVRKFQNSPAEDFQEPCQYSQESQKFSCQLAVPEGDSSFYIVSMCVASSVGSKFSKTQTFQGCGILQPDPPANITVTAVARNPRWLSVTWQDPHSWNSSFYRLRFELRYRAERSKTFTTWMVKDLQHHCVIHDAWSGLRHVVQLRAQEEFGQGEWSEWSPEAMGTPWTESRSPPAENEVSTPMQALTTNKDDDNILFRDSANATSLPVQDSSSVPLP
Assay: standard gp130 ELISA (competition); column 'Potency'
pIC50: −log10 of the molar value.
This section presents binders with their documented pIC50 values.
experimental_endpoint: pIC50

[[record]]
binder = "ID-49V (VHH, Mutant of 7F6; also called 7F6 + F106T; not shown: C-terminal Flag- and His-tags of E. coli constructs) VHH: EVQLVESGGGLVQAGGSTRLTCLASGSISSINVIGWYRQAPGKQRELVAMIGRGEGANYGDFAKGRFTISRDNSKNTVYLQMNSLKPEDTAVYYCYADYEDRDSPTNGSWGQGTQVTVSS"
reported_measurement = 9.51

[[record]]
binder = "ID-6V (VHH, Mutant of 7F6; also called 7F6 + F106H; not shown: C-terminal Flag- and His-tags of E. coli constructs) VHH: EVQLVESGGGLVQAGGSTRLTCLASGSISSINVIGWYRQAPGKQRELVAMIGRGEGANYGDFAKGRFTISRDNSKNTVYLQMNSLKPEDTAVYYCYADYEDRDSPHNGSWGQGTQVTVSS"
reported_measurement = 9.66

[[record]]
binder = "7F6 (VHH, also called VIL-7F6; 'Wild type' 7F6; not shown: C-terminal Flag and 6xHis tags from vector pMEK222) VHH: EVQLVESGGGLVQAGGSTRLTCLASGSISSINVIGWYRQAPGKQRELVAMIGRGEGANYGDFAKGRFTISRDNSKNTVYLQMNSLKPEDTAVYYCYADYEDRDSPFNGSWGQGTQVTVSS"
reported_measurement = 9.82

